MEASURED PARAMETER: glass transition temperature
Answer format: value, then unit.

Example cases with answers are listed next.
Query block: glass transition temperature for *OP(=O)(Oc1ccc(Cl)cc1)Oc1ccc(C(C)(C)c2ccc(*)cc2)cc1 (repeat unit) ?
Result block: 71.00 °C

Query block: glass transition temperature for *Oc1ccc(-c2ccc(/N=N/c3ccc(C(*)=O)cc3)cc2)cc1 (repeat unit) ?
Result block: 147.00 °C

New cases:
Query block: glass transition temperature for *CCOCCOCCOCCOC(=O)Nc1ccc(Cc2ccc(NC(=O)O*)cc2)cc1 (repeat unit) ?
Result block: 37.00 °C

Query block: glass transition temperature for *CC(*)C(=O)OCCCOCC (repeat unit) ?
Result block: -61.50 °C

Query block: glass transition temperature for *CC1(*)OCC(c2ccccc2)O1 (repeat unit) ?
Result block: 75.00 °C

Query block: glass transition temperature for *c1ccc(N2C(=O)c3ccc(C(=O)c4ccc5c(c4)C(=O)N(c4ccc6[nH]c(*)nc6c4)C5=O)cc3C2=O)cc1 (repeat unit) ?
Result block: 412.00 °C

Query block: glass transition temperature for *CC(*)OCCCCCCCOc1ccc(-c2ccc(C#N)cc2)cc1 (repeat unit) ?
Result block: 13.00 °C

Query block: glass transition temperature for *Nc1cc(NC(=O)c2ccccc2C(*)=O)cc(-c2nnc(-c3ccccn3)o2)c1 (repeat unit) ?
Result block: 90.00 °C

Query block: glass transition temperature for *C(F)C(*)C(F)(F)F (repeat unit) ?
Result block: 87.00 °C

====

MEASURED PARAMETER: glass transition temperature (°C)
The figure you give is taken to be in °C; do not add the unit.

Example cases with answers are listed next.
Query block: glass transition temperature for *CC(=O)Nc1cccc(NC(=O)COc2ccc3ccccc3c2Sc2c(O*)ccc3ccccc23)c1 (repeat unit) ?
Result block: 254.00

Query block: glass transition temperature for *CC(=O)Nc1ccc(C2(c3ccc(NC(=O)Cn4c(=O)c5cc6c(=O)n(*)c(=O)c6cc5c4=O)cc3)c3ccccc3-c3ccccc32)cc1 (repeat unit) ?
Result block: 350.00

Query block: glass transition temperature for *Oc1cccc(Oc2ccc(C(=O)c3ccc(NC(=O)CCCCCCCCC(=O)Nc4ccc(C(=O)c5ccc(*)cc5)cc4)cc3)cc2)c1 (repeat unit) ?
Result block: 143.00

Query block: glass transition temperature for *Oc1ccc(S(=O)(=O)c2ccc(Oc3ccc(C(C)(C)c4ccc(*)c(C(O)(C(F)(F)F)C(F)(F)F)c4)cc3C(O)(C(F)(F)F)C(F)(F)F)cc2)cc1 (repeat unit) ?
Result block: 167.00

New cases:
Query block: glass transition temperature for *CC1CCCC(CN2C(=O)c3ccc(-c4ccc5c(c4)C(=O)N(*)C5=O)cc3C2=O)C1 (repeat unit) ?
Result block: 234.00

Query block: glass transition temperature for *CC(*)OC(=O)CC(C)(C)c1ccccc1 (repeat unit) ?
Result block: 20.00

Query block: glass transition temperature for *Oc1c(-c2ccccc2)cc(*)cc1-c1ccccc1-c1ccccc1 (repeat unit) ?
Result block: 211.00

====

Here the recorded glass transition temperature is given for each entry.
The figure you give is taken to be in °C; do not add the unit.

Query block: glass transition temperature for *Cc1ccc(CNC(=O)CCCCCCCCCC(=O)N*)cc1 (repeat unit) ?
Result block: 110.00

New cases:
Query block: glass transition temperature for *c1ccc(C(=O)c2ccc(-n3nc(-c4ccc(Sc5ccc(-c6nn(*)c(=O)c7ccccc67)cc5)cc4)c4ccccc4c3=O)cc2)cc1 (repeat unit) ?
Result block: 281.00

Query block: glass transition temperature for *Oc1c(C)cc(C2(c3cc(C)c(OC(=O)c4ccc(C(*)=O)cc4)c(C)c3)CCC3CCCCC3C2)cc1C (repeat unit) ?
Result block: 287.00

Query block: glass transition temperature for *Oc1ccc(OC(=O)c2ccc(C(*)=O)cc2Oc2ccc(F)cc2)cc1 (repeat unit) ?
Result block: 106.00
